system: rice (Or); test: Test Example 4: selectivity for a crop plant by flooded paddy field treatment; assay type: in vivo; parameters: scale not given here; settings: rice transplanted at second leaf stage, dose 25 g active ingredient per 10 ares, examined on the 21st day after treatment
Parameter: Or (effect on crop plant rice, index). Scope: all listed entries.
// response body must contain only the number

# MOLECULE, Or (effect on crop plant rice, index)
measured = [
    ("CN(C(=O)Cc1ccccc1)C(c1cncnc1C(F)(F)Cl)C1CC1 (racemic)", 1),
    ("CN(C(=O)Cc1ccccc1)C(c1cncnc1C(F)(F)F)C1CC1 (racemic)", 1),
    ("CC(C)C(c1cncnc1C(F)(F)F)N(C)C(=O)Cc1ccc(Br)cc1 (racemic)", 0),
]

Let us move to another entry and its Or (effect on crop plant rice, index).
Q. Name the recorded Or (effect on crop plant rice, index) for CC(C)C(c1cncnc1C(F)(F)Cl)N(C)C(=O)Nc1ccccc1 (racemic) .
A. 0
